Provenance of the data: the supplement of paper PMC6757056

B1: library; a variant is named by its letters at N, in order (parent)
chain: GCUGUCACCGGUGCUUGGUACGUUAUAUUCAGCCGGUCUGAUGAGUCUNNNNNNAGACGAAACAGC

Variants of: B1
Experiment: normalized RNA/DNA level without ligand (relative to sTRSVctl = 100) (log10 (% of sTRSVctl)); HEK293T overexpressing SLC46A1; higher = less ribozyme self-cleavage, higher mRNA level
Conditions: without (6R,S)-folinic acid; ligand present: no
Readings of normalized RNA/DNA level without ligand (log10) for the listed variants
Just the number.

variant_label=CGUUCG result=2.05
variant_label=UUGCCA result=2.02
variant_label=UACUAU result=1.97

Determine its reported normalized RNA/DNA level without ligand (log10): UUGAGC
2.01
